tested target: T1, TNFR1 (Homo sapiens, UniProt P19438)
T1 chain: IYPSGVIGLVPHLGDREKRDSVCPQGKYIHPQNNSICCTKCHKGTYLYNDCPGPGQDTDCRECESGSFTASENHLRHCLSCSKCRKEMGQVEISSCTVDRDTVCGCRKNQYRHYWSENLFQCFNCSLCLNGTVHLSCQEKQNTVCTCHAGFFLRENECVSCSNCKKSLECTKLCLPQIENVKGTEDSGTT
experimental details: yeast display SC50
Threshold check on apparent Kd (screen): strictly below 0.7 nM is met; on or above 0.7 nM is not met.

Below are worked cases with known answers.
binder	cat
E99T (designed binder) MTLQELLREEALRRAEAEAFRYALELLAEKFPEQKEYLLDLAEEIESQIRSLSGVDVEDVRKFLDKEWAWVKELLAEHPAELAEVEAARAARLAELRATVEAKVAA	not met
A91F (designed binder) MTLQELLREEALRRAEAEAFRYALELLAEKFPEQKEYLLDLAEEIESQIRSLSGVDVEDVRKFLDKEWAWVKELLAEHPAELAEVEAARAFRLAELRAEVEAKVAA	met
M1V (designed binder) VTLQELLREEALRRAEAEAFRYALELLAEKFPEQKEYLLDLAEEIESQIRSLSGVDVEDVRKFLDKEWAWVKELLAEHPAELAEVEAARAARLAELRAEVEAKVAA	met
R13D (designed binder) MTLQELLREEALDRAEAEAFRYALELLAEKFPEQKEYLLDLAEEIESQIRSLSGVDVEDVRKFLDKEWAWVKELLAEHPAELAEVEAARAARLAELRAEVEAKVAA	not met
E84G (designed binder) MTLQELLREEALRRAEAEAFRYALELLAEKFPEQKEYLLDLAEEIESQIRSLSGVDVEDVRKFLDKEWAWVKELLAEHPAELAGVEAARAARLAELRAEVEAKVAA	met
R13Y (designed binder) MTLQELLREEALYRAEAEAFRYALELLAEKFPEQKEYLLDLAEEIESQIRSLSGVDVEDVRKFLDKEWAWVKELLAEHPAELAEVEAARAARLAELRAEVEAKVAA	met

Here's the next entry for you.
(Q) For this binder, is apparent Kd (screen) lower than 0.7 nM? R21Y (designed binder) MTLQELLREEALRRAEAEAFYYALELLAEKFPEQKEYLLDLAEEIESQIRSLSGVDVEDVRKFLDKEWAWVKELLAEHPAELAEVEAARAARLAELRAEVEAKVAA
(A) met
